// pEC50 lookup, one value per entry
target_system: ERR1 (also known as ERR-α or ERR-1) (Homo sapiens, UniProt P11474)
Sequence (P11474 193-421 limits assumed, species assumed): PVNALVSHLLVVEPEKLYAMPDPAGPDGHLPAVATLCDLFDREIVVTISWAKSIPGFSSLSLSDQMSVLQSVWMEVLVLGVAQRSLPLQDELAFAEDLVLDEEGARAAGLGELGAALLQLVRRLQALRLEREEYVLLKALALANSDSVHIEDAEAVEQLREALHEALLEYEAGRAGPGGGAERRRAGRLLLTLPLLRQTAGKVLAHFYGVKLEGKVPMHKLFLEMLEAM
measurement_protocol: TR-FRET assay (disruption of co-activator peptide binding)
study_conditions: 6His-tagged ERR1 LBD, GST-hSRC2 co-activator polypeptide; average of 3 independent experiments
pEC50: −log10 of the molar value.
recorded_metric: pEC50

{"columns": ["compound", "endpoint_value"],
 "data": [
  ["O=C1N=C(N2CCN(CC(F)F)CC2)S/C1=C\\c1ccc2c(cnn2Cc2ccc(Cl)cc2C(F)(F)F)c1", 7.71],
  ["N[C@H]1CCCN(C2=NC(=O)/C(=C/c3ccc4c(cnn4Cc4ccc(Cl)cc4C(F)(F)F)c3)S2)C1", 7.71],
  ["O=C1N=C(N2CCC[C@H](C(=O)O)C2)S/C1=C\\c1ccc2c(cnn2Cc2ccc(C(F)(F)F)cc2C(F)(F)F)c1", 8.28],
  ["O=C1N=C(N2CCC[C@H](NCC(F)F)C2)S/C1=C\\c1ccc2c(cnn2Cc2ccc(C(F)(F)F)cc2C(F)(F)F)c1", 7.62],
  ["C[C@@H]1CNCCN1C1=NC(=O)/C(=C/c2ccc3c(cnn3Cc3ccc(Cl)cc3C(F)(F)F)c2)S1", 7.82],
  ["COCCN1CCN(C2=NC(=O)/C(=C/c3ccc4c(cnn4Cc4ccc(Cl)cc4C(F)(F)F)c3)S2)CC1", 7.80],
  ["O=C1N=C(N2CCO[C@H](CO)C2)S/C1=C\\c1ccc2c(c1)c(Cl)nn2Cc1ccc(C(F)(F)F)cc1C(F)(F)F", 8.52],
  ["O=C1N=C(N2CCO[C@@H](CO)C2)S/C1=C\\c1ccc2c(cnn2Cc2ccc(C(F)(F)F)cc2C(F)(F)F)c1", 7.85],
  ["CC(=O)N[C@@H]1C[C@H](CO)N(C2=NC(=O)/C(=C/c3ccc4c(cnn4Cc4ccc(C(F)(F)F)cc4C(F)(F)F)c3)S2)C1", 7.52],
  ["O=C1N=C(N2CCC(N3CCCC(O)C3)CC2)S/C1=C\\c1ccc2c(cnn2Cc2ccc(Cl)cc2C(F)(F)F)c1 (centres unmarked)", 7.72],
  ["C=C(C)c1ccc(Cn2ncc3cc(/C=C4\\SC(N5CCO[C@@H](CO)C5)=NC4=O)ccc32)c(C(F)(F)F)c1", 7.96]
]}

====

target_system: ERR1 (also known as ERR-α or ERR-1) (Homo sapiens)
measurement_protocol: TR-FRET assay (disruption of co-activator peptide binding)
study_conditions: 6His-tagged ERR1 LBD, GST-hSRC2 co-activator polypeptide; average of 3 independent experiments
recorded_metric: EC50

{"columns": ["structure_smiles", "endpoint_value"],
 "data": [
  ["O=C1N=C(N2CCO[C@@H](CO)C2)S/C1=C\\c1ccc2c(cnn2Cc2ccc(Br)cc2C(F)(F)F)c1", "6 nM"],
  ["Cc1nn(Cc2ccc(Cl)cc2C(F)(F)F)c2ccc(/C=C3\\SC(N4CCN(C)C(C)(C)C4)=NC3=O)cc12", "17 nM"],
  ["CN1CCN(C2=NC(=O)/C(=C/c3ccc4c(cnn4Cc4ccc(C(F)(F)F)cc4C(F)(F)F)c3)S2)CC1", "7.2 nM"]
]}

====

target_system: ERR1 (also known as ERR-α or ERR-1) (Homo sapiens, UniProt P11474)
measurement_protocol: TR-FRET assay (disruption of co-activator peptide binding)
study_conditions: 6His-tagged ERR1 LBD, GST-hSRC2 co-activator polypeptide; average of 3 independent experiments
pEC50: −log10 of the molar value.

{"columns": ["molecule", "pEC50"],
 "data": [
  ["O=C1N=C(N2CCN[C@@H](CO)C2)S/C1=C\\c1ccc2c(cnn2Cc2ccc(O)cc2C(F)(F)F)c1", 6.72],
  ["CN1CCN(C2=NC(=O)/C(=C/c3ccc4c(cnn4Cc4ccc(C(C)(C)O)cc4C(F)(F)F)c3)S2)CC1", 7.52],
  ["CN1CCN(C2=NC(=O)/C(=C/c3ccc4c(cnn4Cc4ccc(OS(C)(=O)=O)cc4C(F)(F)F)c3)S2)CC1", 7.98],
  ["NC1CN(C2=NC(=O)/C(=C/c3ccc4c(cnn4Cc4ccc(Cl)cc4C(F)(F)F)c3)S2)C1", 7.82],
  ["CN(C)[C@@H]1CCN(C2=NC(=O)/C(=C/c3ccc4c(cnn4Cc4ccc(C(F)(F)F)cc4C(F)(F)F)c3)S2)C1", 6.72],
  ["O=C1N=C(N2CCCN(C(=O)OCC(F)(F)F)CC2)S/C1=C\\c1ccc2c(cnn2Cc2ccc(Cl)cc2C(F)(F)F)c1", 7.47],
  ["CN1CCN(C2=NC(=O)/C(=C/c3ccc4c(cnn4Cc4ccc(C(F)(F)F)cc4Br)c3)S2)CC1", 7.23],
  ["NC(=O)C1CCN(C2=NC(=O)/C(=C/c3ccc4c(cnn4Cc4ccc(C(F)(F)F)cc4C(F)(F)F)c3)S2)CC1", 7.68],
  ["Cc1nn(Cc2ccc(C(F)(F)F)cc2C(F)(F)F)c2ccc(/C=C3\\SC(N4CCO[C@H](CO)C4)=NC3=O)cc12", 7.68],
  ["COC(=O)CCNC(=O)C1CN(C2=NC(=O)/C(=C/c3ccc4c(cnn4Cc4ccc(Cl)cc4C(F)(F)F)c3)S2)C1", 7.62],
  ["O=C1N=C(N2CC[C@H](NC(=O)C(F)(F)F)C2)S/C1=C\\c1ccc2c(cnn2Cc2ccc(Cl)cc2C(F)(F)F)c1 (stereo in doubt)", 7.96],
  ["O=C1N=C(N2CCC3(CC2)NCNC3=O)S/C1=C\\c1ccc2c(cnn2Cc2ccc(Cl)cc2C(F)(F)F)c1", 7.80],
  ["COCC(=O)N1[C@H](C)CN(C2=NC(=O)/C(=C/c3ccc4c(cnn4Cc4ccc(Cl)cc4C(F)(F)F)c3)S2)C[C@@H]1C", 7.89],
  ["C[C@@H]1CN(C2=NC(=O)/C(=C/c3ccc4c(cnn4Cc4ccc(C(F)(F)F)cc4C(F)(F)F)c3)S2)C[C@H](C)[N+]1(C)C", 8.05],
  ["O=C1N=C(N2CCNC[C@@H]2CO)S/C1=C\\c1ccc2c(cnn2Cc2ccc(C(F)(F)F)cc2C(F)(F)F)c1", 7.74],
  ["O=C1N=C(N2CCN[C@@H](CO)C2)S/C1=C\\c1ccc2c(cnn2Cc2ccc(Cl)cc2C(F)(F)F)c1", 7.97]
]}

====

target_system: ERR1 (also known as ERR-α or ERR-1) (Homo sapiens, UniProt P11474)
measurement_protocol: TR-FRET assay (disruption of co-activator peptide binding)
study_conditions: 6His-tagged ERR1 LBD, GST-hSRC2 co-activator polypeptide; average of 3 independent experiments
recorded_metric: log10 EC50 (log10 of the value in µM)

{"columns": ["compound", "log10 EC50"],
 "data": [
  ["O=C1N=C(N2CCN(CCO)CC2)S/C1=C\\c1ccc2c(cnn2Cc2ccc(C3CC3)cc2C(F)(F)F)c1", -2.34],
  ["O=C1N=C(N2CC(C(=O)O)C2)S/C1=C\\c1ccc2c(cnn2Cc2ccc(Cl)cc2C2CC2)c1", -1.59],
  ["O=C1N=C(N2CCNC[C@@H]2CO)S/C1=C\\c1ccc2c(cnn2Cc2ccc(Cl)cc2C(F)(F)F)c1", -1.39],
  ["O=C1N=C(N2CCO[C@H](CO)C2)S/C1=C\\c1ccc2c(cnn2Cc2ncccc2C(F)(F)F)c1", -0.23],
  ["CC(C)(C)N1CCN(C2=NC(=O)/C(=C/c3ccc4c(cnn4Cc4ccc(Cl)cc4C(F)(F)F)c3)S2)CC1", -1.41],
  ["COc1ccc(Cn2ncc3cc(/C=C4\\SC(N5CC(C(=O)O)C5)=NC4=O)ccc32)c(C(F)(F)F)c1", -2.36],
  ["COC(=O)CCNC(=O)C1CN(C2=NC(=O)/C(=C/c3ccc4c(cnn4Cc4ccc(C(F)(F)F)cc4C(F)(F)F)c3)S2)C1", -1.36],
  ["O=C1N=C(N2CCCC(NCCO)C2)S/C1=C\\c1ccc2c(cnn2Cc2ccc(C(F)(F)F)cc2C(F)(F)F)c1 (centres unmarked)", -1.37],
  ["O=C1N[C@@H]2C[C@H](CO1)N(C1=NC(=O)/C(=C/c3ccc4c(cnn4Cc4ccc(C(F)(F)F)cc4C(F)(F)F)c3)S1)C2", -2.10],
  ["O=C1N=C(N2CC3COC(=O)C3C2)S/C1=C\\c1ccc2c(cnn2Cc2ccc(Cl)cc2C(F)(F)F)c1 (centres unmarked)", -1.85]
]}

====

target_system: ERR1 (also known as ERR-α or ERR-1) (Homo sapiens)
measurement_protocol: TR-FRET assay (disruption of co-activator peptide binding)
study_conditions: 6His-tagged ERR1 LBD, GST-hSRC2 co-activator polypeptide; average of 3 independent experiments
Description: Time-Resolved Fluorescence Resonance Energy Transfer (TR-FRET) experiments were performed to examine the functional response of ERR1 (also known as ERR-α or ERR-1) ligands. The TR-FRET assay described herein relied on the conformation of ERR1 for binding to a co-activator peptide: when a test compound binds to ERR1 and alters its conformation, it can disrupt the binding of the co-activator peptide. […]
recorded_metric: log10(EC50) (log10 of the value in nM)

{"columns": ["compound", "target_system", "endpoint_value"],
 "data": [
  ["O=C1N=C(N2CC(C(=O)O)C2)S/C1=C\\c1ccc2c(cnn2Cc2ccc(Br)cc2C(F)(F)F)c1 [Example 36]", "ERR1 (also known as ERR-α or ERR-1) (Homo sapiens)", 0.73],
  ["CC(N[C@H]1CCN(C2=NC(=O)/C(=C/c3ccc4c(cnn4Cc4ccc(Cl)cc4C(F)(F)F)c3)S2)C1)C(N)=O (some centres unmarked) [Example 265]", "ERR1 (also known as ERR-α or ERR-1) (Homo sapiens)", 1.58],
  ["Cc1nn(Cc2ccc(Cl)cc2C(F)(F)F)c2ccc(/C=C3\\SC(N4CCN[C@@H](CO)C4)=NC3=O)cc12 [Example 183]", "ERR1 (also known as ERR-α or ERR-1) (Homo sapiens)", 0.69],
  ["O=C1N=C(N2CC3CC2CN3)S/C1=C\\c1ccc2c(cnn2Cc2ccc(Cl)cc2C(F)(F)F)c1 (centres unmarked) [Example 100]", "ERR1 (also known as ERR-α or ERR-1) (Homo sapiens)", 1.15],
  ["CN1CCN(C2=NC(=O)/C(=C/c3ccc4c(cnn4Cc4ccc(S(C)(=O)=O)cc4C(F)(F)F)c3)S2)CC1 [Compound 15]", "ERR1 (also known as ERR-α or ERR-1) (Homo sapiens)", 2.72],
  ["NC1CCN(C2=NC(=O)/C(=C/c3ccc4c(cnn4Cc4ccc(Cl)cc4C(F)(F)F)c3)S2)CC1 [Example 57]", "ERR1 (also known as ERR-α or ERR-1) (Homo sapiens)", 1.08],
  ["CN1CCN(C2=NC(=O)/C(=C/c3ccc4c(cnn4Cc4ccc(C(F)(F)F)cc4C(F)(F)F)c3)S2)C[C@@H]1CO [Example 195]", "ERR1 (also known as ERR-α or ERR-1) (Homo sapiens)", 1.30],
  ["O=C1N=C(N2CCC(C(=O)NS(=O)(=O)N3CCCC3)CC2)S/C1=C\\c1ccc2c(cnn2Cc2ccc(C(F)(F)F)cc2C(F)(F)F)c1 [Example 173]", "ERR1 (also known as ERR-α or ERR-1) (Homo sapiens)", 1.85],
  ["N[C@@H]1CCCN(C2=NC(=O)/C(=C/c3ccc4c(cnn4Cc4ccc(C(F)(F)F)cc4C(F)(F)F)c3)S2)C1 [Example 53]", "ERR1 (also known as ERR-α or ERR-1) (Homo sapiens)", 1.11],
  ["CN1CCN(C2=NC(=O)/C(=C/c3ccc4c(cnn4Cc4ccc(Br)cc4C(F)(F)F)c3)S2)CC1 [Example 26]", "ERR1 (also known as ERR-α or ERR-1) (Homo sapiens)", 0.68],
  ["O=C1N=C(N2CCN(C3CC3)CC2)S/C1=C\\c1ccc2c(cnn2Cc2ccc(Cl)cc2C(F)(F)F)c1 [Example 121]", "ERR1 (also known as ERR-α or ERR-1) (Homo sapiens)", 1.40],
  ["CNC(=O)[C@H]1CN(C2=NC(=O)/C(=C/c3ccc4c(cnn4Cc4ccc(C(F)(F)F)cc4C(F)(F)F)c3)S2)CCN1 [Example 227]", "ERR1 (also known as ERR-α or ERR-1) (Homo sapiens)", 1.18],
  ["CC[C@H]1CN(C)CCN1C1=NC(=O)/C(=C/c2ccc3c(cnn3Cc3ccc(Cl)cc3C(F)(F)F)c2)S1 [Example 256]", "ERR1 (also known as ERR-α or ERR-1) (Homo sapiens)", 1.69],
  ["CN(C)CC1(O)CCN(C2=NC(=O)/C(=C/c3ccc4c(cnn4Cc4ccc(Cl)cc4C(F)(F)F)c3)S2)CC1 [Example 163]", "ERR1 (also known as ERR-α or ERR-1) (Homo sapiens)", 1.41],
  ["CCOCCN1CCN(C2=NC(=O)/C(=C/c3ccc4c(cnn4Cc4ccc(C(F)(F)F)cc4C(F)(F)F)c3)S2)CC1 [Example 73]", "ERR1 (also known as ERR-α or ERR-1) (Homo sapiens)", 2.24],
  ["C[C@@H]1CN(C2=NC(=O)/C(=C/c3ccc4c(cnn4Cc4ccc(C(C)(C)O)cc4Cl)c3)S2)C[C@H](C)N1 [Example 233]", "ERR1 (also known as ERR-α or ERR-1) (Homo sapiens)", 2.10],
  ["O=C1N=C(N2CCC(C(=O)O)CC2)S/C1=C\\c1ccc2c(cnn2Cc2ccc(F)cc2C(F)(F)F)c1 [Example 176]", "ERR1 (also known as ERR-α or ERR-1) (Homo sapiens)", 2.14],
  ["C[C@@H]1CN(C2=NC(=O)/C(=C/c3ccc4c(cnn4Cc4ccc(C(F)(F)F)cc4C(F)(F)F)c3)S2)C[C@H](C)N1C [Example 239]", "ERR1 (also known as ERR-α or ERR-1) (Homo sapiens)", 1.26],
  ["CS(=O)(=O)NC1CCN(C2=NC(=O)/C(=C/c3ccc4c(cnn4Cc4ccc(Cl)cc4C(F)(F)F)c3)S2)CC1 [Example 111]", "ERR1 (also known as ERR-α or ERR-1) (Homo sapiens)", 0.84],
  ["CC(C)(O)c1ccc(Cn2ncc3cc(/C=C4\\SC(N5CCO[C@@H](CO)C5)=NC4=O)ccc32)c(Cl)c1 [Example 231]", "ERR1 (also known as ERR-α or ERR-1) (Homo sapiens)", 2.69],
  ["COCC(=O)N1C[C@@H]2C[C@H]1CN2C1=NC(=O)/C(=C/c2ccc3c(cnn3Cc3ccc(Cl)cc3C(F)(F)F)c2)S1 [Example 89]", "ERR1 (also known as ERR-α or ERR-1) (Homo sapiens)", 0.67],
  ["O=C1N=C(N2CCCN(CCF)CC2)S/C1=C\\c1ccc2c(cnn2Cc2ccc(Cl)cc2C(F)(F)F)c1 [Example 133]", "ERR1 (also known as ERR-α or ERR-1) (Homo sapiens)", 0.61],
  ["CC(=O)N(C)C1CCN(C2=NC(=O)/C(=C/c3ccc4c(cnn4Cc4ccc(Cl)cc4C(F)(F)F)c3)S2)CC1 [Example 155]", "ERR1 (also known as ERR-α or ERR-1) (Homo sapiens)", 1.53]
]}
